# Tested on: NEK7
# Condition Info: concentration: 1 μM, replicates: in singlicate; n = 1;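 further: KINOMEscan kinase panel screen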
Measured Parameter: %Inh
Could you write the number and then its unit?

The cases that follow already have their %Inh on record.
| Compound | Measured Parameter | Value Reported |
| --- | --- | --- |
| COc1ccc(S(=O)(=O)NC2CCN(c3cc(C)nc(Nc4cccc(C#N)c4)n3)CC2)cc1.O=C(O)C(F)(F)F | %Inh | 0% |
| Cl.Oc1cccc(Nc2ccnc3cc(-c4ccncc4)ccc23)c1 | %Inh | 0% |
| Cc1cccc(-c2nc(Nc3ccc4ncsc4c3)c3ccccc3n2)n1 | %Inh | 0% |

State recorded %Inh for all listed compounds.
1. CNc1ncnc2[nH]ncc12
2. Cc1c(Cn2c(C)nn3c(=O)cc(N4CCOC(C)C4)nc23)cccc1C(F)(F)F (stereo not drawn)
3. Cc1ccc(C(=O)NCC(N)=O)cc1-n1c(C)cc(OCc2ccc(F)cc2F)c(Br)c1=O
4. Cc1nnc(-c2ccc3ncc(-c4ccc(S(C)=O)cc4)n3c2)o1 (stereo not drawn)
5. Cc1cccc(-c2nc(-c3ccc(S(C)(=O)=O)cc3)sc2-c2ccncc2)c1
6. COc1ccc(Nc2nccc(N3CCC(NC(=O)Nc4cccc(C(C)=O)c4)C3)n2)cc1 (stereo not drawn)

Given back:
["0%", "1%", "12%", "0%", "0%", "0%"]

====

# Tested on: ALK
# Condition Info: concentration: 1 μM, replicates: in singlicate; n = 1
Assignment: determine reported %Inh for the given compounds.
One number for each entry, in %.

State recorded %Inh for all listed compounds.
1. COc1ccc(CNC(=O)NC2CCN(c3ccnc(Nc4ccc(OC)cc4)n3)C2)cc1 (centres unmarked) [GSK1379727]
2. CC(=O)Nc1ccc(COc2ccc(Nc3ccnc4cc(-c5ccccn5)ccc34)cc2)cc1.Cl [GW440148]
3. O=C1Cc2cc(Nc3nc(NCc4cccc(S(=O)(=O)C(F)(F)F)c4)ncc3C(F)(F)F)ccc2N1
4. O=c1cc(N2CCOCC2)nc2n(Cc3cccc4ccccc34)ccn12 [GSK2333389]
5. Cc1nnc(-c2ccc(C)c(-c3ccc(C(=O)Nc4ccc(NS(C)(=O)=O)cc4)cc3)c2)o1 [GW702865]
6. CCc1ccnc(/C=C/c2n[nH]c3cc(Sc4ccccc4C(=O)NC)ccc23)c1

Given back:
1: 28; 2: 6; 3: 0; 4: 2; 5: 6; 6: 11

State recorded %Inh for all listed compounds.
1. NCC(NC(=O)c1cc(-c2cn[nH]c2)c(-c2ccnc3[nH]ccc23)s1)c1ccccc1.O=C(O)C(F)(F)F.O=C(O)C(F)(F)F (centres unmarked) [GSK1325775]
2. CC(C)Oc1ccc2c(-c3ccnc(Nc4ccc(N5CCN(C)CC5)cc4)n3)cnn2n1 [GW696155]
3. O=C(c1ccc(-c2cc(-c3c[nH]nc3-c3ccccn3)ccn2)cc1)N1CCOCC1 [GW812171]
4. CN1c2ccc(NCc3ccc(F)cc3)cc2-c2c(cnn2C)S1(=O)=O
5. NS(=O)(=O)c1cccc(-c2ccc3nccc(-c4cccc(S(N)(=O)=O)c4)c3c2)c1 [GW867253]
6. COc1cc(Nc2nccc(N3CCC(NC(=O)c4cccc(NC(C)=O)c4)C3)n2)cc(OC)c1OC (centres unmarked) [GSK1379754]
7. COc1ccc(Nc2nccc(N3CCC(NC(=O)Nc4cccc(C(C)=O)c4)C3)n2)cc1 (centres unmarked) [GSK1379731]

Given back:
1: 38; 2: 42; 3: 5; 4: 13; 5: 0; 6: 29; 7: 15
